Just for reference, patent US9833497B2 is where these values come from.

Measured MIC values are reported for all entries that follow.
# Test system: E. coli BL21
# Test Description: MIC against Gram-negative bacteria: E. coli BL21
# Format: cell-based
# Experimental Context: E. coli BL21; 10 h cultivation at 37° C.; 5×10^5 CFU/mL

# Substance, MIC (µg/mL)
measured = [
    ("PRT421 (DQDECLLLPGELCQHLCINTVGSYHCACFPGFSLQDDGRTCR; listed as Homo sapiens)", 50),
    ("PRT417 (DVNECQRYPGRLCGHKCENTLGSYLCSCSVGFRLSVDGRSCE; listed as Homo sapiens)", 50),
    ("PRT435 (DMDECSFSEFLCQHECVNQPGTYFCSCPPGYILLDDNRSCQ; listed as Homo sapiens)", 25),
]

###

# Test system: E. coli BL21
# Test Description: MIC against Gram-negative bacteria: E. coli BL21
# Assay type: cell-based
# Experimental Context: 96-well plate, 5×10^5 CFU/mL, 37° C., 10 h
Measurement Type: MIC against E. coli BL21

# Substance, Measurement Type, Recorded Value
rows = [
    ("PRT455 (DVNECSQENGGCLQICHNKPGSFHCSCHSGFELSSDGRTCQ; listed as Homo sapiens)", "MIC against E. coli BL21", "12.5 µg/mL"),
    ("PRT562 (CQCHNNIDTTDPEACDKETGRCLKCLYHTEGEHCQFCRFGYYGDALQQDCRK; listed as Homo sapiens)", "MIC against E. coli BL21", "25 µg/mL"),
    ("PRT554 (CNCESDFTDGTCEDLTGRCYCRPNFSGERCDVCAEGFTGFPSCYPT; listed as Homo sapiens)", "MIC against E. coli BL21", "50 µg/mL"),
]

###

# System: Serratia marcescens
# Test Description: MIC against Gram-negative bacteria: Serratia marcescens
# Assay type: cell-based
# Experimental Context: 10 h cultivation at 37° C., 5×10^5 CFU/mL, two-fold serial dilution
Listed substances paired with reported MIC S. marcescens

# Substance, MIC S. marcescens [µg/mL]
data = [
    ("PRT1180 (DIDYCEPNPCQNGAQCYNRASDYFCKCPEDYEGKNCS; listed as Homo sapiens)", 25),
    ("PRT1152 (HASPCSLMKCGNGGTCIESGTSVYCNCTTGWKGSFCT; listed as Homo sapiens)", 50),
    ("PRT1129 (PVTNCASSPCQNGGTCLQHTQVSYECLCKPEFTGLTCV; listed as Homo sapiens)", 12.5),
    ("PRT1094 (GDNSCKSNPCHNGGVCHSRWDDFSCSCPALTSGKACE; listed as Homo sapiens)", 12.5),
    ("PRT1139 (RYNLCDLLHNPCRNNSTCLALVDANQHCICREEFEGKNCE; listed as Homo sapiens)", 25),
    ("PRT1072 (TQQVCAGYCANNSTCTVNQGNQPQCRCLPGFLGDRCQ; listed as Homo sapiens)", 12.5),
    ("PRT1045 (HGPGCQEHCLCLHGGVCQATSGLCQCAPGYTGPHCA; listed as Homo sapiens)", 50),
    ("PRT1119 (EVLECASAPCEHNASCLEGLGSFRCLCWPGYSGELCE; listed as Homo sapiens)", 50),
    ("PRT1169 (RDSQCDEATCNNGGTCYDEGDAFKCMCPGGWEGTTCN; listed as Homo sapiens)", 12.5),
    ("PRT1115 (PTLPCEANPCLNGGTCRAAGGVSECICNARFSGQFCE; listed as Homo sapiens)", 12.5),
    ("PRT1143 (NLDECLSEPCLHDGVCIDGINHYTCDCKSGFFGTHCE; listed as Homo sapiens)", 12.5),
]
